target: PDE5A1 (Homo sapiens); construct: from tissue; host or cells: human platelets from fresh donor blood (10,000 x g supernatant of sonicated lysate); experiment: Inhibition of type 5 phosphodiesterase (PDE5) activity, modified SPA test with human platelet lysate; format: biochemical; conditions: 0.5 μM cGMP, read-out: PDE5A1 inhibitory values [measured as −log IC50 (mol/l)] (converted)
Readings of IC50 for the listed compounds

{"compound": "CCc1ccc(OCC2CC2)c(-c2ncnc3c(C(=O)N[C@H]4CC[C@H](NC(=O)COC)CC4)c(C)[nH]c23)c1", "observed_measurement": "< 1 nM"}
{"compound": "CCC(=O)N1CCC(NC(=O)c2c(C)[nH]c3c(-c4cc(OC)c(F)cc4OCC4CC4)ncnc23)CC1", "observed_measurement": "< 1 nM"}

# context switch: different compound, same IC50
*Q* Form field: reported IC50 of COc1ccc(-c2ncnc3c(C(=O)NC4CN(C(=O)C(C)O)CC4O)c(C)[nH]c23)c(OCC2CC2)c1 (mixture of isomers)
*A* < 1 nM
